Test: LC-MS/MS plasma concentration of formula (10b) and Compound A at end of efficacy study (Example 1)
Assay type: in vivo, NOD/SCID mice
Details: NOD/SCID, mouse, plasma, oral, 30 mg/kg, Compound A Plasma concentration, 2 hours after final dose of Compound A; Compound A 30 mg/kg QD; mean ± SD, N = 4
outcome measure: concentration at 2 h (nM)
State the answer as a number, implicitly in nM.

Query: Consider the compound C=CC(=O)N1CCN(c2nc(=O)n(-c3c(C)ccnc3C(C)C)c3nc(-c4c(O)cccc4F)c(F)cc23)[C@@H](C)C1 [Compound A, reference compound] and give its measured concentration at 2 h.
Result: 2000
